Test system: Escherichia coli K-12
Protocol Summary: Binding affinity to Escherichia coli K12 KAS 3 expressed in Escherichia coli BL21 by STD-NMR spectroscopy
Calls of active or inactive are those of the source. The rule behind the calls is not given here.
Labels: active, inactive

>>> classification("CC(C)(CC(=O)O)CC(=O)NCCN1CCNC1=O")
"active"
>>> classification("Cc1c(C(=O)O)cc(C(C)(C)C)n1CCSCc1c(F)cccc1Cl")
"inactive"
>>> classification("CCCc1cc(=O)oc2cc(OC(=O)c3ccccc3Cl)ccc12")
"inactive"
>>> classification("C=CCn1c(SCC(=O)Nc2ccc(S(N)(=O)=O)cc2)nnc1-c1ccc(Cl)cc1")
"inactive"
>>> classification("Oc1ccc(/C=N/C2CCCCC2)c(O)c1")
"active"

* * *

Target Or System: Beta-ketoacyl-[acyl-carrier-protein] synthase III (Escherichia coli K-12)
Sequence (P0A6R0 whole entry): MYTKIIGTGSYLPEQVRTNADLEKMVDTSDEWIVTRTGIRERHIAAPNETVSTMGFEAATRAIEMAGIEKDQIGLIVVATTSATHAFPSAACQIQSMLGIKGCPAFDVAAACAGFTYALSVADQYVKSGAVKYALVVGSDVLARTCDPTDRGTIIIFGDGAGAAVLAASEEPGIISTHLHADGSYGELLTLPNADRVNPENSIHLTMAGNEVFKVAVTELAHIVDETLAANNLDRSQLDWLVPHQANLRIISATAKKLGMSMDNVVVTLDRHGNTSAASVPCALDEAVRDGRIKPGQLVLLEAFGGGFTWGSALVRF
Observation Type: Kd (µM)

>>> reported_result("Cn1ncc2c(Nc3ccccc3)nc(NCCCO)nc21")
141
>>> reported_result("COc1ccc2c(c1OC)C(=O)OC2C(C)C(=O)c1ccc(O)c(O)c1 (stereo unspecified)")
1.22
>>> reported_result("C=C/C(C)=C/[C@@]1(C)SC(=O)C(C)=C1O [THIOLACTOMYCIN]")
121
>>> reported_result("Oc1ccc(/C=N/C2CCCCC2)c(O)c1")
0.02

* * *

System: Escherichia coli K-12
Protocol Summary: Binding affinity to Escherichia coli K12 KAS 3 expressed in Escherichia coli BL21 by STD-NMR spectroscopy
The source made the active and inactive calls. The rule behind the calls is not given here.
Observation Type: Activity

>>> reported_result("COc1ccc(NC(=O)CC(CC(=O)O)c2ccccc2)cc1 (configuration not stated)")
"inactive"
>>> reported_result("COc1ccc2c(c1)CCC/C2=N/Nc1nc(C(=O)NN)cs1")
"inactive"
>>> reported_result("O=C(O)c1cc(NC(=O)c2ccccc2[N+](=O)[O-])ccc1O")
"Active"
>>> reported_result("C=CCSC1Nn2c(nnc(C)c2=O)S1 (configuration not stated)")
"Active"
>>> reported_result("Cn1ncc2c(Nc3ccccc3)nc(NCCCO)nc21")
"Active"
>>> reported_result("CC1(O)N(CCC(N)=O)C(=O)OC12CCCCC2 (configuration not stated)")
"inactive"
>>> reported_result("Cc1cc(C)nc(NS(=O)(=O)c2ccc(NC(=O)c3sc4ccccc4c3Cl)cc2)n1")
"inactive"
>>> reported_result("C=C/C(C)=C/[C@@]1(C)SC(=O)C(C)=C1O [THIOLACTOMYCIN]")
"Active"
>>> reported_result("C/C(=N\\Nc1nc(C)cs1)c1cccc(O)c1")
"Active"
>>> reported_result("CC1CN(c2ccc(O)c(C(=O)O)c2)C(=S)NC1=O (configuration not stated)")
"Active"
>>> reported_result("NS(=O)(=O)c1cccc(NC(=O)Nc2cccc(S(N)(=O)=O)c2)c1")
"inactive"
>>> reported_result("COc1ccc2c(c1OC)C(=O)OC2C(C)C(=O)c1ccc(O)c(O)c1 (configuration not stated)")
"Active"
